The measured values listed here are drawn from the supplement of paper PMC10567573.

B1: KCNA3 (parent)
chain: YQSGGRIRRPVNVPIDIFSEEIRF

- Variants of: B1
- Assay comment: protein stability index of a GFP-peptide fusion (GPS, HEK-293T) (PSI 1-6); higher = more stable;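 also: lentivirally expressed fusions sorted by FACS into six bins by GFP to DsRed ratio, PSI derived from sequencing read proportions per bin multiplied by bin number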
- Applied conditions: c terminus: a fixed tail appended
Class Y: protein stability index at least 2. Class N: protein stability index below 2.

Previously resolved entries follow.
YQSGKRIRRPVNVPIDIFSEEIRF [G5K]	Y
YQSGGRIRRPVNVPIDIFSEEIFF [R23F]	N
YQSGGRIRRPVPVPIDIFSEEIRF [N12P]	Y
YQSGGRNRRPVNVPIDIFSEEIRF [I7N]	N
YQSGGRIRRPVNVPIHIFSEEIRF [D16H]	N
YQSGGRIRRPVNVPIDIVSEEIRF [F18V]	Y
YQSGGRIRRPHNVPIDIFSEEIRF [V11H]	N

Lab note: next variant to report on.
q: In plain terms: is recorded protein stability index at least 2 for YQSGGRIRRPVNVPIDIFSGEIRF [E20G] ?
a: N
